# duplex melting temperature per record follows
assay: duplex melting temperature (HRM, EvaGreen); higher = more stable duplex; conditions: duplex concentration 5 µM; backbone: PS-PO (listed strand fully phosphorothioate, complement phosphodiester)
Give the quantity in °C, number only.

// query Please report duplex melting temperature for the following sequence: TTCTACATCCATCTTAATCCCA
// result 61.7

// query Please report duplex melting temperature for the following sequence: GAACCGTTGATGATCTC
// result 59.4

// query Please report duplex melting temperature for the following sequence: ACGGGTCGTTCCGTG
// result 63.3

// query Please report duplex melting temperature for the following sequence: ACTCGCTCTACCTTAAT
// result 57.7

// query Please report duplex melting temperature for the following sequence: TTGAAAACCCATGTGC
// result 59.3

// query Please report duplex melting temperature for the following sequence: AATGAGGAGTGAAATGG
// result 59.3

// query Please report duplex melting temperature for the following sequence: TTCGCGGTCTCCATTA
// result 63

// query Please report duplex melting temperature for the following sequence: CCACTAGCGGCGCCGTT
// result 73

// query Please report duplex melting temperature for the following sequence: AGAGCGCCCTGCTGCC
// result 71.3

// query Please report duplex melting temperature for the following sequence: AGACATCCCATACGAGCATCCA
// result 70.2

// query Please report duplex melting temperature for the following sequence: CTGTAAGGCGATATGTT
// result 59.6

// query Please report duplex melting temperature for the following sequence: AGCACGGTGGTACAACA
// result 65.3

// query Please report duplex melting temperature for the following sequence: TACTTCCAACGTAGG
// result 55

// query Please report duplex melting temperature for the following sequence: CGGCGCGCTG
// result 64.9

// query Please report duplex melting temperature for the following sequence: TGTCGCACCCTACTA
// result 61.7

// query Please report duplex melting temperature for the following sequence: CTTTTGTGCGGGTAGC
// result 61.5

// query Please report duplex melting temperature for the following sequence: TGCCATGTTGAAAACC
// result 58.4

FYI, the data here is from the supplement of paper PMC9116672.
